Target: UniProt P49327
Sequence (P49327 whole entry): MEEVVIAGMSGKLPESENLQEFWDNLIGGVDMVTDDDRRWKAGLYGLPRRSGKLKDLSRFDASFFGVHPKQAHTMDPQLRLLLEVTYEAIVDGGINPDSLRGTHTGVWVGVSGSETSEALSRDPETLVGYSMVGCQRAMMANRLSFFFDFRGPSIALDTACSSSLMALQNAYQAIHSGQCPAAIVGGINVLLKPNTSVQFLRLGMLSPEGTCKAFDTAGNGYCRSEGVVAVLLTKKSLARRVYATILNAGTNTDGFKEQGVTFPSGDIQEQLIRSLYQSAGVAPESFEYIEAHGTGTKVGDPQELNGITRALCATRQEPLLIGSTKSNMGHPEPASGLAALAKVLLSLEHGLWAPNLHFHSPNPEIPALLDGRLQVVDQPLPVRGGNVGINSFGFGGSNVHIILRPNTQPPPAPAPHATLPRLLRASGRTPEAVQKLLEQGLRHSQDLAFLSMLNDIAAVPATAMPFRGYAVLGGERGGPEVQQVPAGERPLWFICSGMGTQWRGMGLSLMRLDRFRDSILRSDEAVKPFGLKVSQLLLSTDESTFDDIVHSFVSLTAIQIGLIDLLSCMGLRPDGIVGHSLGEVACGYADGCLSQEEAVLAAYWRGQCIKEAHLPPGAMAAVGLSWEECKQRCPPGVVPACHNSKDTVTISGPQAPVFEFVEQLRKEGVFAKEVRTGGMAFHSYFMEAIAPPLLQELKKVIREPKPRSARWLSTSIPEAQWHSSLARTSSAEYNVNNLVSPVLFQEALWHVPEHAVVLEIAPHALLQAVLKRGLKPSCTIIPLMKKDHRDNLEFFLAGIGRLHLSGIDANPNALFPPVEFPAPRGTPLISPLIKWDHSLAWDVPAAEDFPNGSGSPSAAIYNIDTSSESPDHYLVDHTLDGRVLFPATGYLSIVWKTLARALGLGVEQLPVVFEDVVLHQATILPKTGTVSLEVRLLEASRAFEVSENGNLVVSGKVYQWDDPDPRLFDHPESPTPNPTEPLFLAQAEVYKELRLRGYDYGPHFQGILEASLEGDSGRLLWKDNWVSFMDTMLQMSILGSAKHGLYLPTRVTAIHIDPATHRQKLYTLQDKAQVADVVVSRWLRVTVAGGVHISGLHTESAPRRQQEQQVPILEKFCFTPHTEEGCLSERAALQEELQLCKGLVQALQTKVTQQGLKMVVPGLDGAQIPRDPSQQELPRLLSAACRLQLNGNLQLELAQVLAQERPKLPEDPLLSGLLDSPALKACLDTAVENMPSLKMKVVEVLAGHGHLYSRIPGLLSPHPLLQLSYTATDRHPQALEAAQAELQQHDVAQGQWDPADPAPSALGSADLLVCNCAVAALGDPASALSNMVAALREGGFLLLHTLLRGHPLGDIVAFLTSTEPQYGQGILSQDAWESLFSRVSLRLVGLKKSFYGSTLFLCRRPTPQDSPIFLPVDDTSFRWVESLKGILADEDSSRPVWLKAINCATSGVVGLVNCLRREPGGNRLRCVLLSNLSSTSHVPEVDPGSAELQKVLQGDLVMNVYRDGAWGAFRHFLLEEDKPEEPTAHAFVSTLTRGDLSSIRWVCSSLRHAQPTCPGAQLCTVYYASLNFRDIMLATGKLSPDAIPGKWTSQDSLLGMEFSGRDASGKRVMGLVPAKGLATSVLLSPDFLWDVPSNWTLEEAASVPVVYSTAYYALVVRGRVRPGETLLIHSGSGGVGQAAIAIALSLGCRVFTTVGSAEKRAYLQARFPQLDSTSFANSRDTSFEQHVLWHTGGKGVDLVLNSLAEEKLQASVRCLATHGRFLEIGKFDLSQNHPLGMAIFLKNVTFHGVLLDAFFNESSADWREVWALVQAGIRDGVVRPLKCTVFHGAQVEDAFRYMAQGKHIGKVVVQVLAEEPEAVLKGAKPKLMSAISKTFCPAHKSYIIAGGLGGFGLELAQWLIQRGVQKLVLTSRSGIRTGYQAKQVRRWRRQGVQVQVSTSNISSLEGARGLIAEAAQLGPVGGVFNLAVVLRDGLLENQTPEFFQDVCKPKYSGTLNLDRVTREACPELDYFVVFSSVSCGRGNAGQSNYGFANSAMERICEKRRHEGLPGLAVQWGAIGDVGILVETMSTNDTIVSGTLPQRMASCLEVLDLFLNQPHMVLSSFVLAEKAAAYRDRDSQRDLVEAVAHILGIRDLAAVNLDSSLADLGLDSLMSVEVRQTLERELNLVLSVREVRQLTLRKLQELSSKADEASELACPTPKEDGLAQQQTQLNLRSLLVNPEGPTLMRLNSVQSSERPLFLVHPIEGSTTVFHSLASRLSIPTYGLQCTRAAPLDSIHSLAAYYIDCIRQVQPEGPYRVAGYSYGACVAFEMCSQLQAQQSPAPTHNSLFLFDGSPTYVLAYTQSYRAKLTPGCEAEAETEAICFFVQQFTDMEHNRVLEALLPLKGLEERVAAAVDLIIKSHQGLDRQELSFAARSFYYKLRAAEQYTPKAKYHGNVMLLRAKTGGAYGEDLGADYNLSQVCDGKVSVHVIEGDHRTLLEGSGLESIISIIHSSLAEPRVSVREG
measured-attribute: Ki (nM)
Answers are plain numbers, in nM.

Exercise: What Ki value was documented for this compound, Cc1c(OCC(F)(F)F)ccnc1C[S+]([O-])c1nc2ccccc2[nH]1 (stereo unspecified) ?
Key: 1700
